organism: Rattus norvegicus; test: Open TG-GATES - Regimen: Daily Repeat; format: toxicity, organism-based, Sprague-Dawley; design: regimen Daily Repeat, gender Male, age 6 weeks; conditions: in vivo, po, 0 mg/kg, […], tissue Blood, route gavage, dose level Control, time 7 day
value type: WBC (x10_2/uL)
All answers are understood in x10_2/uL, so give the number only.

Documented WBC of CN(CCOc1ccc(CC2SC(=O)NC2=O)cc1)c1ccccn1.O=C(O)/C=C\C(=O)O (stereo not given) [ROSIGLITAZONE MALEATE] : 98.6

Documented WBC of "CC(=O)[C@@]1(O)CC[C@H]2[C@@H]3C=C(Cl)C4=CC(=O)CC[C@]4(C)[C@H]3CC[C@@]21C" : 129.9

Documented WBC of "CN(C/C=C/C#CC(C)(C)C)Cc1cccc2ccccc12" : 118.9

New cases:
Documented WBC of "O=c1ccc2ccccc2o1" : 145

Documented WBC of CC(S)C(=O)NCC(=O)O (stereo not given) : 124.9

###

TP values for the compounds below.
species on record: Rattus norvegicus; experiment: Open TG-GATES - Regimen: Single; format: toxicity, organism-based, Sprague-Dawley; parameters: regimen Single, gender Male, age 6 weeks; details: in vivo, po, 0 mg/kg, 3 h, tissue Plasma, route gavage, dose level Control
All answers are understood in g/dL, so give the number only.

Please review the entries below; each comes with its answer.
Documented TP of CC(S)C(=O)NCC(=O)O (configuration not stated) [TIOPRONIN] : 5.4

Documented TP of CN(CCOc1ccc(CC2SC(=O)NC2=O)cc1)c1ccccn1.O=C(O)/C=C\C(=O)O (configuration not stated) [ROSIGLITAZONE MALEATE] : 5.4

Documented TP of NS(=O)(=O)c1cc(C(=O)O)c(NCc2ccco2)cc1Cl [FUROSEMIDE] : 5.4

New cases:
Documented TP of "CCN(CC)C(=S)SSC(=S)N(CC)CC" : 5.5

Documented TP of O=c1ccc2ccccc2o1 [COUMARIN] : 5.8

Documented TP of CC(=O)[C@@]1(O)CC[C@H]2[C@@H]3C=C(Cl)C4=CC(=O)CC[C@]4(C)[C@H]3CC[C@@]21C [CHLORMADINONE] : 5.4

Documented TP of CCO [ALCOHOL] : 5.3

###

species: Rattus norvegicus; test: Open TG-GATES - Regimen: Single; format: toxicity, organism-based, Sprague-Dawley; set-up: regimen Single, gender Male, age 6 weeks; conditions: in vivo, po, 0 mg/kg, 3 h, tissue Plasma, route gavage, dose level Control
TBIL below 0.08 mg/dL gives Criterion not met; TBIL at or above it gives Criterion met.

Please check the record "C=C[C@H]1C[N@@]2CC[C@H]1C[C@@H]2[C@@H](O)c1ccnc2ccc(OC)cc12" and state if its TBIL is at or above 0.08 mg/dL. Criterion not met

Please check the record CC(S)C(=O)NCC(=O)O (stereo not drawn) and state if its TBIL is at or above 0.08 mg/dL. Criterion not met

New cases:
Please check the record "CCO" and state if its TBIL is at or above 0.08 mg/dL. Criterion met

###

TG values for the compounds below.
species: Rattus norvegicus; test: Open TG-GATES - Regimen: Single; format: toxicity, organism-based, Sprague-Dawley; design: regimen Single, gender Male, age 6 weeks; conditions: in vivo, po, 0 mg/kg, 9 h, tissue Plasma, route gavage, dose level Control
All answers are understood in mg/dL, so give the number only.

Documented TG of NS(=O)(=O)c1cc(C(=O)O)c(NCc2ccco2)cc1Cl [FUROSEMIDE] : 35.8

Documented TG of "CC(=O)[C@@]1(O)CC[C@H]2[C@@H]3C=C(Cl)C4=CC(=O)CC[C@]4(C)[C@H]3CC[C@@]21C" : 69.8

Documented TG of "O=C(O)c1ccccc1Nc1ccccc1" : 39

Documented TG of "CN(C)CCCN1c2ccccc2Sc2ccc(Cl)cc21" : 59.2

Documented TG of CN(CCOc1ccc(CC2SC(=O)NC2=O)cc1)c1ccccn1.O=C(O)/C=C\C(=O)O (centres undefined) [ROSIGLITAZONE MALEATE] : 45.2

Documented TG of CCCCNC(=O)NS(=O)(=O)c1ccc(C)cc1 [TOLBUTAMIDE] : 33.2

Documented TG of "Nc1ccc(Cc2ccc(N)cc2)cc1" : 42.4

Documented TG of "CCN(CC)C(=S)SSC(=S)N(CC)CC" : 82.4

Documented TG of "CN(C/C=C/C#CC(C)(C)C)Cc1cccc2ccccc12" : 62

###

KIDNEY_R values for the compounds below.
organism: Rattus norvegicus; assay: Open TG-GATES - Regimen: Daily Repeat; format: toxicity, organism-based, Sprague-Dawley; design: regimen Daily Repeat, gender Male, age 6 weeks; details: in vivo, po, 0 mg/kg, […], tissue Kidney, route gavage, dose level Control, time 28 day

Please review the entries below; each comes with its answer.
Documented KIDNEY_R of "O=C(O)c1ccccc1Nc1ccccc1" : 1.5 g

Documented KIDNEY_R of "CCCCC1C(=O)N(c2ccccc2)N(c2ccccc2)C1=O" : 1.4 g

New cases:
Documented KIDNEY_R of "COc1ccc([C@@H]2Sc3ccccc3N(CCN(C)C)C(=O)[C@@H]2OC(C)=O)cc1" : 1.5 g

###

species: Rattus norvegicus; experiment: Open TG-GATES - Regimen: Daily Repeat; assay type: toxicity, organism-based, Sprague-Dawley; design: regimen Daily Repeat, gender Male, age 6 weeks; details: in vivo, po, 0 mg/kg, […], tissue Plasma, route gavage, dose level Control, time 14 day
value type: LDH (IU/L)
All answers are understood in IU/L, so give the number only.

Please review the entries below; each comes with its answer.
Documented LDH of CN(C/C=C/C#CC(C)(C)C)Cc1cccc2ccccc12 [TERBINAFINE] : 188.8

Documented LDH of CCO [ALCOHOL] : 80.2

Documented LDH of CC(S)C(=O)NCC(=O)O (stereo unspecified) [TIOPRONIN] : 157.8

Documented LDH of O=c1ccc2ccccc2o1 [COUMARIN] : 84.8

Documented LDH of COc1ccc([C@@H]2Sc3ccccc3N(CCN(C)C)C(=O)[C@@H]2OC(C)=O)cc1 [DILTIAZEM] : 92.8

Let us move to another entry and its LDH.
Documented LDH of CC(=O)[C@@]1(O)CC[C@H]2[C@@H]3C=C(Cl)C4=CC(=O)CC[C@]4(C)[C@H]3CC[C@@]21C [CHLORMADINONE] : 156.6

###

species on record: Rattus norvegicus; experiment: Open TG-GATES - Regimen: Single; format: toxicity, organism-based, Sprague-Dawley; parameters: regimen Single, gender Male, age 6 weeks; settings: in vivo, po, 0 mg/kg, 9 h, tissue Blood, route gavage, dose level Control
value type: Fbg (mg/dL)
All answers are understood in mg/dL, so give the number only.

Please review the entries below; each comes with its answer.
Documented Fbg of CC(=O)[C@@]1(O)CC[C@H]2[C@@H]3C=C(Cl)C4=CC(=O)CC[C@]4(C)[C@H]3CC[C@@]21C [CHLORMADINONE] : 309.2

Documented Fbg of O=C(O)c1ccccc1Nc1ccccc1 [FENAMIC ACID] : 261.6

Documented Fbg of O=c1ccc2ccccc2o1 [COUMARIN] : 206.8

Documented Fbg of COc1ccc([C@@H]2Sc3ccccc3N(CCN(C)C)C(=O)[C@@H]2OC(C)=O)cc1 [DILTIAZEM] : 313

Documented Fbg of "CCN(CC)C(=S)SSC(=S)N(CC)CC" : 297.2

Documented Fbg of CCCCNC(=O)NS(=O)(=O)c1ccc(C)cc1 [TOLBUTAMIDE] : 284

Documented Fbg of "Nc1ccc(Cc2ccc(N)cc2)cc1" : 277

New cases:
Documented Fbg of CN(CCOc1ccc(CC2SC(=O)NC2=O)cc1)c1ccccn1.O=C(O)/C=C\C(=O)O (stereo not drawn) [ROSIGLITAZONE MALEATE] : 221.4

###

MCHC values for the compounds below.
species: Rattus norvegicus; experiment: Open TG-GATES - Regimen: Single; format: toxicity, organism-based, Sprague-Dawley; parameters: regimen Single, gender Male, age 6 weeks; settings: in vivo, po, 0 mg/kg, 3 h, tissue Blood, route gavage, dose level Control

Documented MCHC of CN(C/C=C/C#CC(C)(C)C)Cc1cccc2ccccc12 [TERBINAFINE] : 33.7%

Documented MCHC of COc1ccc([C@@H]2Sc3ccccc3N(CCN(C)C)C(=O)[C@@H]2OC(C)=O)cc1 [DILTIAZEM] : 32.3%

Documented MCHC of NS(=O)(=O)c1cc(C(=O)O)c(NCc2ccco2)cc1Cl [FUROSEMIDE] : 33.2%

Let us move to another entry and its MCHC.
Documented MCHC of CN(C)CCCN1c2ccccc2Sc2ccc(Cl)cc21 [CHLORPROMAZINE] : 34.7%
